System: SF-268 CNS
methodDescription: NCI-60 one-dose screen, 48 h (100 = growth as untreated, 0 = no growth, -100 = all killed)
conditionParameters: 10 µM unless noted
The panel holds about 83,000 compounds, 20% with a hit somewhere; the sample as a whole holds those more often.
For each of the compounds below, state its growth.
Give bare numbers, in %.

Observe how each entry below is paired with its result.
{"columns": ["compound", "unitSymbol", "growth"],
 "data": [
  ["CCCCCCCCCCCCSC1=CC(=O)C=CC1=O", "%", 44.6],
  ["O=C1/C(=C/c2ccccc2F)CNC/C1=C\\c1ccccc1F", "%", -11.4],
  ["O=C1CC(c2ccsc2)c2snc(-c3ccc(Cl)cc3)c2N1 (stereo unspecified)", "%", 56.1],
  ["COc1cc(-c2nc(Nc3nc4ccccc4[nH]3)nc(N)c2C#N)cc(OC)c1OC", "%", 71.2],
  ["O=[N+]([O-])c1ccc2nc(N/N=C/c3ccc(O)cc3)sc2c1", "%", 64.1],
  ["COc1ccc(OC2=CC(=O)c3ccc(C)nc3C2=O)cc1", "%", 79.2],
  ["OB(O)c1ccccc1", "%", 106],
  ["NC(=O)c1cccc(-n2ccc3cc(NC(=O)Nc4ccc(Cl)c(Cl)c4)ccc32)n1", "%", 83],
  ["CCCN1CCN(c2ccc3nc(-c4ccc5nc(-c6ccc(C(F)(F)F)cc6)[nH]c5c4)[nH]c3c2)CC1", "%", -70.2],
  ["Cc1ccc(C2SCC(=O)N2NC(=O)c2[nH]c3ccc(F)cc3c2-c2ccccc2)cc1 (stereo unspecified)", "%", 93.4]
]}

Hi team, please reply with growth for each item in this list.
1. O=C1c2cc(S(=O)(=O)O)ccc2C(=O)c2c1cccc2[N+](=O)[O-]
2. CN1CCc2c(Sc3ccc(C(=O)NO)cc3)c3ccccc3n2C1
3. Cc1nn(CC(=O)O)c2c1C(=O)CC(C)(C)C2

Reply text:
1. 108
2. 35.9
3. 103
